Can you tell me Mean relative activity for the items I'm about to list?
system: K562 CRISPRi cells; test: Constant region variant library pooled growth screen, K562; assay type: cell-based, human; conditions: sgRNA constant region variants; activity relative to the original, un-modified constant region cr995
Numbers only.

molecule	Mean relative activity
cr516 (nucleic acid, listed as DNA, chemistry not fully specified) guide: GTTTAAGAGCTAAGCTGGAAACAGCATAGCAAGTTTAAATAAGCCTAGTGCGTTATCAGCTTGAAAAAGCGGCACCGAGTCGGTGCT	0.8009

Let us move to another entry and its Mean relative activity.
Query: Which Mean relative activity reading was recorded for the molecule cr312 (nucleic acid, listed as DNA, chemistry not fully specified) guide: GTTTAAGAGCTAAGCTGGAAACAGCATAGCAAGGTTAAATAAGGCTAGTCCGTTATCAACGTGAAAACGTGGCACCGAGTCGGTGCT ?
Response: 0.03032
